# assay-target: T1, PUF4 RNA-binding domain (Saccharomyces cerevisiae, UniProt P25339 537-888)
# T1 sequence: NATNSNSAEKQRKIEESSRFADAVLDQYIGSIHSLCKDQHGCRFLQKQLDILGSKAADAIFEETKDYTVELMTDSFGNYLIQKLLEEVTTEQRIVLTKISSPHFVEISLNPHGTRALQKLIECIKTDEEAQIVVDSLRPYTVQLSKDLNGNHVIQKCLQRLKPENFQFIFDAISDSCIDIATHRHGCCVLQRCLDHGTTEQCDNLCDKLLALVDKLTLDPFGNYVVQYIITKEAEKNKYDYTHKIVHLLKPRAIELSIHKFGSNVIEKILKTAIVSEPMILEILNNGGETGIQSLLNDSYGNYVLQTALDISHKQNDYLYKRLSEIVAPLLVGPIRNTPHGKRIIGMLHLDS
# test-details: Mg; RNA-MaP; 20 mM Na-HEPES pH 7.4, 30 mM KOAc, 0.75 mM MgCl2, 0.1% Tween-20, 5% glycerol, 0.1 mg/mL BSA, 2 mM DTT; 25 C; 0.0125-409.6 nM protein
# condition-summary: tags: N-His6-TEV cleaved; C-SNAP kept, Cy3B-labelled; label: tethered on chip by stalled RNA polymerase
test-readout: Kd

Known Kd results, listed for orientation:
| binder | test-readout | recorded-measurement |
| --- | --- | --- |
| Ic_S4_P5E.1_K5.1_C5.1_H5.1_A5.1_[T5A]_[A7C]_F5.1_[T8C]_[T9G]_[A10G]_T5.1 (ssRNA) RNA: UUUGACAACUGAUCGUUCUUUCUUGUAAUCCGGUUCUUUCUCGAUCAGUUGUCUUU | Kd | > 2300 nM |
| ACAAACUAACACUAUAUAACAAAC (ssRNA) [Id_ii_S3_P3E.4_K3.3_C3.2_[C-2T]_[T-1A]_H3.3_A3.1_F3.1_T3.2] | Kd | > 2300 nM |

Read the next record carefully.
INPUT: Write down Kd measured for item Id_ii_S2_P4E.4_K4.3_C4.2_[T-1G]_H4.3_A4.1_F4.1_T4.2_[G10A]_[T11C] (ssRNA) RNA: UUUGAUUAAUAUGAUAUCGUUCUUUCUCGACACUAUUAACUUCUUUCUCGAUAUCAUAUUAAUCUUU
OUTPUT: > 2300 nM
